Property: MIC; scope: individual compounds
System: Streptococcus pyogenes
Test: Antibacterial activity against Streptococcus pyogenes ATCC 700294 by broth microdilution method
Assay type: functional
Conditions: M1 GAS

{"SAMPLE SMILES": "CO[C@H]1C[C@H](O[C@H]2[C@H](C)[C@@H](O[C@@H]3O[C@H](C)C[C@H](N(C)C)[C@H]3O)[C@@H](C)C[C@H](C)[C@H](O)[C@H](C)[C@@H](O)[C@@H](C)[C@@H](C)OC(=O)[C@@H]2C)O[C@@H](C)[C@@H]1O", "MIC": "> 64 µg/mL"}
{"SAMPLE SMILES": "CO[C@H]1C[C@H](O[C@H]2[C@H](C)[C@@H](O[C@@H]3O[C@H](C)C[C@H](N(C)C)[C@H]3O)[C@@H](C)C[C@@H](C)[C@H](O)[C@H](C)[C@@H](O)[C@@H](C)[C@@H](C)OC(=O)[C@@H]2C)O[C@@H](C)[C@@H]1O", "MIC": "> 64 µg/mL"}
{"SAMPLE SMILES": "CO[C@H]1C[C@H](O[C@H]2[C@H](C)[C@@H](O[C@@H]3O[C@H](C)C[C@H](N(C)C)[C@H]3O)[C@@H](C)C[C@H](C)C(=O)[C@H](C)[C@@H](O)[C@@H](C)[C@@H](C)OC(=O)[C@@H]2C)O[C@@H](C)[C@@H]1O", "MIC": "> 64 µg/mL"}

For the next question, use this compound.
[ask] Recorded MIC for CO[C@H]1C[C@H](O[C@H]2[C@H](C)[C@@H](O[C@@H]3O[C@H](C)C[C@H](N(C)C)[C@H]3O)[C@@H](C)C[C@@H](C)C(=O)[C@H](C)[C@@H](O)[C@@H](C)[C@@H](C)OC(=O)[C@@H]2C)O[C@@H](C)[C@@H]1O , please?
[reply] 0.5 µg/mL
